# experimentalSystem: Q9C0E4
# testSummary: holdup assay
# Set-up: key: below the threshold = too weak to quantify, mostly under pKd 3.1 to 4
# testParameters: plain residues with an end cap or a label only (N-terminal biotin on a linker: ttds)
attributeMeasured: pKd

Here's what some known entries look like.
binder: SHSSKGETAV [FZD7, O75084]
pKd: below the threshold

binder: KLVIKTETTV [RASSF6, Q6ZTQ3]
pKd: below the threshold

binder: SSIDLWETAL [SLC15A5, A6NIM6]
pKd: below the threshold

binder: PSRDRKETSI [RALBP1, Q15311]
pKd: below the threshold

# evaluate next
Q: So what does the record say about pKd for PPRQRSETQV [HPV82-E6, Q9IR59] ?
Ans: below the threshold
